Cited source: paper PMC9000871

- System: A2780 (ovarian carcinoma)
- PROTOCOL: SRB cytotoxicity assay, A2780
- Type: cell-based
- TEST_PARAMETERS: Homo sapiens, 72 h of treatment, mean ± standard mean error
Consider the following compounds; for each one, report its pEC50.
One number for each entry, as −log10 of the molar value.

Sample C=C(C)[C@@H]1CC[C@]2(C(=O)O)CC[C@]3(C)[C@H](CC[C@@H]4[C@@]5(C)CC[C@H](O)C(C)(C)[C@@H]5CC[C@]43C)[C@@H]12 [BA, betulinic acid, reference compound] ; pEC50 observed: 5.06

For reference, reported pEC50 for COc1cccc2c1C(=O)c1c(O)c3c(c(O)c1C2=O)C[C@@](O)(C(=O)CO)C[C@@H]3O[C@H]1C[C@H](N)[C@H](O)[C@H](C)O1 [DX, doxorubicin, reference compound] stands at 7.70

Briefly, pEC50 measured for CCN(CC)c1ccc2c(-c3ccccc3C(=O)N3CCCN(C(=O)[C@]45CC[C@@H](C)[C@H](C)C4C4=CCC6[C@@]7(C)CC[C@H](OC(C)=O)C(C)(C)C7CC[C@@]6(C)[C@]4(C)CC5)CC3)c3ccc(=[N+](CC)CC)cc-3oc2c1 (stereo partly shown) : 6.35

Lab note: next compound to report on.
Entry CCN(CC)c1ccc2c(-c3ccccc3C(=O)N3CCN(C(=O)[C@]45CC[C@@H](C)[C@H](C)C4C4=CCC6[C@@]7(C)CC[C@H](OC(C)=O)C(C)(C)C7CC[C@@]6(C)[C@]4(C)CC5)CC3)c3ccc(=[N+](CC)CC)cc-3oc2c1 (stereo partly shown) , pEC50 reported as 7.42
